Assignment: determine reported TGI for the given compounds.
System: NCI/ADR-RES ovarian
testMethodNotes: NCI tumour cell line growth inhibition, 48 h

TGI reading for COc1cc(CCC[P+](c2ccccc2)(c2ccccc2)c2ccccc2)c(OC)c2c1OCO2 : > 100 µM

Input C=C(C)[C@@H]1CC[C@]2(CO)CC[C@]3(C)[C@H](CC[C@@H]4[C@@]5(C)CCCNC(C)(C)[C@@H]5CC[C@]43C)[C@@H]12 . Output TGI: 3.18 µM

Reported TGI for COc1ccc(CCN2CCN(CCCc3ccccc3)CC2)cc1 was > 100 µM

Per the record, Cc1cc(N(CCC#N)CCC#N)ccc1/C(N=Nc1ccc([N+](=O)[O-])cc1)=N\NC(=O)c1cc(Cl)ccc1O has TGI of > 100 µM

TGI measured on CCCCCCN(CCCCCC)CCC(=O)c1ccc2cc(Br)c3ccccc3c2c1 = > 100 µM

Entry CO/C=C(/C(=O)OC)[C@@H]1C[C@@H]1c1ccc2ccccc2c1 ; TGI = 65.3 µM

// TGI value for CCOP(=O)(OCC)Oc1c(OC)c2[nH]c(C(=O)OC)cc2c2c(C(=O)O)c[nH]c12 : > 100 µM

Given item Cc1nc(-c2ccccc2)cn2c1nc1ccccc12 , the value recorded as its TGI is 55.7 µM

Lab note: Cn1c(-c2ccc(C=O)o2)ccc1-c1ccc(C=O)o1 gave TGI of > 100 µM

###

Task for the reader: assign each of the following compounds its reported TGI.
System: RPMI-8226 leukemia
testMethodNotes: NCI tumour cell line growth inhibition, 48 h

Just so you know, measured TGI for CN(C)c1ccc(/C=N/NC(N)=S)nc1 came out at > 100 µM

Just so you know, measured TGI for O=S1(=O)c2ccccc2N(O)C2=NCCN21 came out at > 100 µM

For this compound ( COc1ccc2c(c1)c1c3c(ccc4ncn2c43)N(CCO)CCN=1 ), measured TGI is 2.56 µM

TGI for COc1ccccc1C#Cc1ccccc1C#Cc1ccc(OCCCCCCOc2ccccc2C#Cc2ccccc2C#Cc2ccccc2OC)cc1 is > 100 µM

Reported TGI for COc1cc2nc(N3CCCN(C)CC3)nc(NC3CCN(Cc4ccccc4)CC3)c2cc1OC was 6.18 µM

###

Test system: NCI-H23 lung
testMethodNotes: NCI tumour cell line growth inhibition, 48 h; in the data active means GI50 below about 0.43 µM; inactive means the rest
Your response should consist of one outcome taken from true (active), false (inactive)

[Q] Recorded call for CCCc1nn(C)c2c(=O)[nH]c(-c3cc(S(=O)(=O)N4CCN(C)CC4)ccc3OCC)nc12 ?
[A] false

[Q] In this assay, the call recorded for CCOC(=O)c1[nH]c2cc(Cl)ccc2c1[C@@H](C(=O)NC(C)(C)C)N(CC)C(=O)CCCCC#Cc1cccc2c1CN(C1CCC(=O)NC1=O)C2=O (stereo partly drawn) was what?
[A] false

[Q] I would be grateful if you could indicate the recorded call for CN(C)c1ccc(/C=N/NC(N)=S)nc1 .
[A] false

[Q] Given O=S(=O)(N=C1C(Cl)=C(Cl)C(=NS(=O)(=O)c2ccccc2)C(Cl)=C1Cl)c1ccccc1 , state the outcome it received in this test.
[A] false

[Q] Query: recorded result category for COc1cnc2c(c1)C(=O)c1c-2n(CCCN2CCCC2)c(=O)c2cc([N+](=O)[O-])ccc12 in this test
[A] true

[Q] What was the test verdict on CCN(CC)CCN(CC)CC.CCN(CC)CCN(CC)CC.[Cu+2].[Cu+2].[O-][Cl+3]([O-])([O-])[O-].[OH3+].[OH3+] ?
[A] false

[Q] Record lookup: outcome of this test for NC(=O)c1cc(N2CC2)c([N+](=O)[O-])cc1[N+](=O)[O-] ?
[A] false

[Q] Test call for this compound, please: COc1cc2nc(N3CCCN(C)CC3)nc(NC3CCN(Cc4ccccc4)CC3)c2cc1OC
[A] false
